Items are presented alongside their recorded Biochem EGFR %Inhibition.
target: EGFR (Homo sapiens, UniProt P00533); construct: Add 7 ug A431 cell lysate per well (EGFR source); endogenous in cells; host or cells: A431; experiment: EGFR ELISA assay (in vitro kinase activity, EGFR captured from A431 cell lysate); type: biochemical; design: concentration or dose not given beside the values
Sequence (P00533 25-1210): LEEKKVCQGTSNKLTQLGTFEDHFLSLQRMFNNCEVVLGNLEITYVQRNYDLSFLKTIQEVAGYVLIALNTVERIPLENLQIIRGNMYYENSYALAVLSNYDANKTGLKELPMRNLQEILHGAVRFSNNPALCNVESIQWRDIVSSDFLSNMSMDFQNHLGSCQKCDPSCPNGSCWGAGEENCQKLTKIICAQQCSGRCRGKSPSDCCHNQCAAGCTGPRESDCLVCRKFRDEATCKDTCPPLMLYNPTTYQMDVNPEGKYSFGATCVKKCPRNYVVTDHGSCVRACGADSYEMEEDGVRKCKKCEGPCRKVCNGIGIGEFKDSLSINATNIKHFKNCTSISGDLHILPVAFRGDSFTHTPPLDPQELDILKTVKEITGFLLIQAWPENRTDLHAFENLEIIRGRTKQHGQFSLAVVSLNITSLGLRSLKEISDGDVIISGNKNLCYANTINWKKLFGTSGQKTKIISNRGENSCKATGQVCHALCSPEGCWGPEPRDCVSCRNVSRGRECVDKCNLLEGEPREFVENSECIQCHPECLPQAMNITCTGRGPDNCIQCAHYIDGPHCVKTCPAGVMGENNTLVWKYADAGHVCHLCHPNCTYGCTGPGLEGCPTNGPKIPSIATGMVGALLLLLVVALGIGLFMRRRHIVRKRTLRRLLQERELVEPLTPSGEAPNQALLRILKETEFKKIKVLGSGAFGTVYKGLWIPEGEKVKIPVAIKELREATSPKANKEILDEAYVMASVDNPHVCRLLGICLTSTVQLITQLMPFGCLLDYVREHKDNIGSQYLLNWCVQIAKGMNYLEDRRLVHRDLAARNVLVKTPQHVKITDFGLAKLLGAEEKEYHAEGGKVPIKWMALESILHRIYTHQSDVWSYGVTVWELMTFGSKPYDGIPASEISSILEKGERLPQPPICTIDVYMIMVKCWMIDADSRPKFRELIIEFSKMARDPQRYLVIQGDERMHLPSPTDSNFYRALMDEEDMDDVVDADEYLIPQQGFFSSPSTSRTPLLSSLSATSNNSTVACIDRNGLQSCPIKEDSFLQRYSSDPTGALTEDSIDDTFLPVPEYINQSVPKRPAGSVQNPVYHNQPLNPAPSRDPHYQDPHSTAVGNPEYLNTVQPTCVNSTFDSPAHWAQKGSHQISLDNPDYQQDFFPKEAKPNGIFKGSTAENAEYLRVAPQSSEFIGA
Quick note: give the figure in %, leave out the unit.

Observe how each entry below is paired with its result.
{"compound": "CNS(=O)(=O)c1ccc2c(c1)C(=CC(c1cccs1)C(F)(F)F)C(=O)N2 (stereo not shown)", "observed.property": "Biochem EGFR %Inhibition", "numeric.readout": 8.7}
{"compound": "O=C1Nc2ccc(S(=O)(=O)Nc3ccc(C(F)(F)F)cc3)cc2C1=Cc1cc([N+](=O)[O-])cc(CCl)c1O", "observed.property": "Biochem EGFR %Inhibition", "numeric.readout": 91.5}
{"compound": "Cc1ccc2occ(C=C3C(=O)Nc4ccc(I)cc43)c(=O)c2c1", "observed.property": "Biochem EGFR %Inhibition", "numeric.readout": 37.5}
{"compound": "O=C1Nc2c(Br)cc(Br)cc2C1=Cc1cc(Cl)ccc1O", "observed.property": "Biochem EGFR %Inhibition", "numeric.readout": 11.4}
{"compound": "CNS(=O)(=O)c1ccc2c(c1)C(=Cc1ccc(OC)c3ccccc13)C(=O)N2", "observed.property": "Biochem EGFR %Inhibition", "numeric.readout": 15.5}

Look up Biochem EGFR %Inhibition of Cc1csc2sc(C=C3C(=O)Nc4ccc(CCCl)cc43)c(C)c12 and report it.
-29.5

Look up Biochem EGFR %Inhibition of Cc1c(Br)ccc2c1C(=Cc1cc([N+](=O)[O-])cc(CCl)c1O)C(=O)N2 and report it.
80.2

Look up Biochem EGFR %Inhibition of Cc1ccc(C=C2C(=O)Nc3ccc(S(=O)(=O)Nc4ccc(C(F)(F)F)cc4)cc32)s1 and report it.
-7.8

Look up Biochem EGFR %Inhibition of COc1c(O)ccc(C=C2C(=O)Nc3ccc(S(=O)(=O)Nc4ccc(C(F)(F)F)cc4)cc32)c1[N+](=O)[O-] and report it.
31.6

Look up Biochem EGFR %Inhibition of Cc1c(Br)ccc2c1C(=Cc1c(Br)cnn1-c1ccc(Cl)cc1)C(=O)N2 and report it.
5.3

Look up Biochem EGFR %Inhibition of CCCCN(CCCC)c1ccc(C=C2C(=O)Nc3ccc(I)cc32)cc1 and report it.
-11.3

Look up Biochem EGFR %Inhibition of COc1cccc(OC)c1C=C1C(=O)Nc2ccc(CCCl)cc21 and report it.
-2.0

Look up Biochem EGFR %Inhibition of COc1cc(C=C2C(=O)Nc3ccc(S(=O)(=O)Nc4ccc(C(F)(F)F)cc4)cc32)cc(OC)c1OC and report it.
13.5

====

molecular target: FLK-1 receptor (Mus musculus, UniProt P35918); construct: expressed in transfected cells; host or cells: NIH3T3 C7#3; assay: FLK-1 ELISA (kinase activity of the FLK-1 receptor in FLK-1/NIH3T3 cells, VEGF stimulated); format: cell-based
Sequence (P35918 20-1345): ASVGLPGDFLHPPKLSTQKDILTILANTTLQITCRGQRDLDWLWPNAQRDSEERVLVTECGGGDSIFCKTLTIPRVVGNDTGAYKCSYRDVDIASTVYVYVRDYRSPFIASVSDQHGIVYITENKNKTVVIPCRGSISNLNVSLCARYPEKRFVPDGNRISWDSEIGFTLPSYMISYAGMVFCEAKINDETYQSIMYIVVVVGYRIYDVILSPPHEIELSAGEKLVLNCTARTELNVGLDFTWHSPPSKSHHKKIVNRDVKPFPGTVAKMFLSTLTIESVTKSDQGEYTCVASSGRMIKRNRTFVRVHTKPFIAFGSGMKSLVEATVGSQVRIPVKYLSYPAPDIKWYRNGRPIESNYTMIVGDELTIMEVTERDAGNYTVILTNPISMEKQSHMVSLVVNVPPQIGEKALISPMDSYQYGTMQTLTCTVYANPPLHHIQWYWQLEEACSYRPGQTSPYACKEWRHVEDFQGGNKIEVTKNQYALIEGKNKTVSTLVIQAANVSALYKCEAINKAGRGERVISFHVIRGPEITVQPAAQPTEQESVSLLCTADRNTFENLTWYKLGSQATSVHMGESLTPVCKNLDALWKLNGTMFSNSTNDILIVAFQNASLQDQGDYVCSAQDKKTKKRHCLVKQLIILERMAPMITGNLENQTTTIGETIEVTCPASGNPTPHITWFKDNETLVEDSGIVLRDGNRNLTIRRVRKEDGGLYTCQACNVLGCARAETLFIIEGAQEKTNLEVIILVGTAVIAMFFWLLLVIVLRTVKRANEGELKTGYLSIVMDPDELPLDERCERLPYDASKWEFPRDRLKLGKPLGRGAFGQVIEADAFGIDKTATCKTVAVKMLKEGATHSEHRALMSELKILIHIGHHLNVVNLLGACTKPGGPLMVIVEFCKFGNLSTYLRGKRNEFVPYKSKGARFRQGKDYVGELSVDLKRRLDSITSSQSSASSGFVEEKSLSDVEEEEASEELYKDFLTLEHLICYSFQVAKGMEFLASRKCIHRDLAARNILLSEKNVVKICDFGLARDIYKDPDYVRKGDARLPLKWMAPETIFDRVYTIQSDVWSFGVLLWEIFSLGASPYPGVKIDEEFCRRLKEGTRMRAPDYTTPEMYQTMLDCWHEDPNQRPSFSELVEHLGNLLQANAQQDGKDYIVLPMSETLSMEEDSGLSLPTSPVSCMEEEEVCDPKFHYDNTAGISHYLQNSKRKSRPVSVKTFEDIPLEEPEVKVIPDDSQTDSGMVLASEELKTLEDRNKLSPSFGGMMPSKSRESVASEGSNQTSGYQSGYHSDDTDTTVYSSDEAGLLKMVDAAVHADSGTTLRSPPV
observed.property: Fik Kinase %Inhibition (%)
Quick note: give the figure in %, leave out the unit.

Observe how each entry below is paired with its result.
{"given.smiles": "CCOc1ccccc1C=C1C(=O)Nc2ccc(S(=O)(=O)Nc3ccc(C(F)(F)F)cc3)cc21", "Fik Kinase %Inhibition / %": 17.9}
{"given.smiles": "Cc1c(Br)ccc2c1C(=Cc1ccccc1O)C(=O)N2", "Fik Kinase %Inhibition / %": -36.1}
{"given.smiles": "CNS(=O)(=O)c1ccc2c(c1)C(=Cc1ccc(Br)s1)C(=O)N2", "Fik Kinase %Inhibition / %": 9.8}
{"given.smiles": "CCc1ccc(C=C2C(=O)Nc3c(Br)cc(Br)cc32)s1", "Fik Kinase %Inhibition / %": 3.7}

# ---- query molecule ----
Look up Fik Kinase %Inhibition of O=C1Nc2ccc(S(=O)(=O)N3CCOCC3)cc2C1=Cc1cc(O)ccc1O and report it.
15.9

====

test system: MET; experiment: MET biochemical kinase assay; parameters: species or system human; concentration or dose not given beside the values
Tag: Condition met if measured Met Kinase % Inhibition is not below 60%, Condition not met if it is.

Hi team, for CC(C)c1cc(C=C2C(=O)Nc3c(Br)cc(Br)cc32)cc(C(C)C)c1Oc1ccccc1 , is the recorded Met Kinase % Inhibition at or above 60%?
Condition not met

Hi team, for CCOC(=O)c1c(C)[nH]c(C=C2C(=O)Nc3ccc(S(=O)(=O)Nc4ccc(C(F)(F)F)cc4)cc32)c1C , is the recorded Met Kinase % Inhibition at or above 60%?
Condition not met

Hi team, for COc1ccc(C=C2C(=O)Nc3c(Br)cc(Br)cc32)cc1C(C)(C)C , is the recorded Met Kinase % Inhibition at or above 60%?
Condition not met

Hi team, for O=C1Nc2ccc(I)cc2C1=Cc1ccc(Br)s1 , is the recorded Met Kinase % Inhibition at or above 60%?
Condition met

Hi team, for O=C1Nc2ccc(CCCl)cc2C1=Cc1ccc(F)cc1Cl , is the recorded Met Kinase % Inhibition at or above 60%?
Condition not met

Hi team, for Cc1ccc(C=C2C(=O)Nc3ccc(Br)c(C)c32)o1 , is the recorded Met Kinase % Inhibition at or above 60%?
Condition met

Hi team, for O=C1Nc2ccc(CCCl)cc2C1=Cc1c(O)cc(O)cc1O , is the recorded Met Kinase % Inhibition at or above 60%?
Condition not met

Hi team, for CCOc1cc(C=C2C(=O)Nc3ccc(S(=O)(=O)Nc4ccc(C(F)(F)F)cc4)cc32)ccc1O , is the recorded Met Kinase % Inhibition at or above 60%?
Condition not met

Hi team, for CNS(=O)(=O)c1ccc2c(c1)C(=Cc1ccc(-c3ccccc3Cl)o1)C(=O)N2 , is the recorded Met Kinase % Inhibition at or above 60%?
Condition not met

Hi team, for Cc1c(Br)ccc2c1C(=Cc1cc([N+](=O)[O-])cc(CCl)c1O)C(=O)N2 , is the recorded Met Kinase % Inhibition at or above 60%?
Condition not met

Hi team, for O=C1Nc2ccc(S(=O)(=O)Nc3ccc(C(F)(F)F)cc3)cc2C1=Cc1ccc(O)cc1 , is the recorded Met Kinase % Inhibition at or above 60%?
Condition not met

Hi team, for Cc1c(Br)ccc2c1C(=Cc1ccccc1)C(=O)N2 , is the recorded Met Kinase % Inhibition at or above 60%?
Condition not met

Hi team, for COc1c(Br)cc(C=C2C(=O)Nc3ccc(S(=O)(=O)N4CCOCC4)cc32)cc1C(C)(C)C , is the recorded Met Kinase % Inhibition at or above 60%?
Condition met

Hi team, for CCc1cc(CC)c(C=C2C(=O)Nc3ccc(I)cc32)[nH]1 , is the recorded Met Kinase % Inhibition at or above 60%?
Condition met

Hi team, for CCOc1cccc(C=C2C(=O)Nc3ccc(S(=O)(=O)NC)cc32)c1O , is the recorded Met Kinase % Inhibition at or above 60%?
Condition not met

====

target: FLK-1 receptor (Mus musculus, UniProt P35918); construct: expressed in transfected cells; host or cells: NIH3T3 C7#3; assay: FLK-1 ELISA (kinase activity of the FLK-1 receptor in FLK-1/NIH3T3 cells, VEGF stimulated); assay type: cell-based
observed.property: Fik Kinase %Inhibition (%)
Quick note: give the figure in %, leave out the unit.

{"given.smiles": "Cc1cc(C=C2C(=O)Nc3c(Br)cc(Br)cc32)sc1C", "Fik Kinase %Inhibition [%]": 6.5}
{"given.smiles": "CC(C)(C)c1cc(C=C2C(=O)Nc3ccc(CCCl)cc32)ccc1O", "Fik Kinase %Inhibition [%]": 20.4}
{"given.smiles": "O=C1Nc2ccc(I)cc2C1=Cc1ccc([N+](=O)[O-])s1", "Fik Kinase %Inhibition [%]": 14.7}
{"given.smiles": "CN1C(=O)C(=C2C(=O)Nc3ccc(S(=O)(=O)Nc4ccc(C(F)(F)F)cc4)cc32)c2ccccc21", "Fik Kinase %Inhibition [%]": 33.1}
{"given.smiles": "COc1ccc2ccccc2c1C=C1C(=O)Nc2ccc(CCCl)cc21", "Fik Kinase %Inhibition [%]": 18.8}

Look up Fik Kinase %Inhibition of Cc1c(Br)ccc2c1C(=Cc1ccccc1Sc1ccc(Cl)cc1)C(=O)N2 and report it.
13.7

Look up Fik Kinase %Inhibition of CC(C)(C)c1cc(C=C2C(=O)Nc3c(Br)cc(Br)cc32)cc(Cl)c1O and report it.
13.7

Look up Fik Kinase %Inhibition of Cc1c(Br)ccc2c1C(=Cc1ccc(F)cc1Cl)C(=O)N2 and report it.
23.5

Look up Fik Kinase %Inhibition of Cc1c(Br)ccc2c1C(=Cc1ccc(Cl)s1)C(=O)N2 and report it.
10.9

Look up Fik Kinase %Inhibition of CC(C)(C)c1cc(C=C2C(=O)Nc3ccc(S(=O)(=O)Nc4ccc(C(F)(F)F)cc4)cc32)ccc1OCc1ccccc1 and report it.
2.8

Look up Fik Kinase %Inhibition of COC(=O)Cc1c(Cl)[nH]c(C=C2C(=O)Nc3ccc(Br)c(C)c32)c1C(=O)OC and report it.
11.2

Look up Fik Kinase %Inhibition of COc1cc(N(C)C)ccc1C=C1C(=O)Nc2ccc(S(=O)(=O)Nc3ccc(C(F)(F)F)cc3)cc21 and report it.
17.4

Look up Fik Kinase %Inhibition of CCOC(=O)c1cc(C=C2C(=O)Nc3ccc(S(=O)(=O)N4CCOCC4)cc32)oc1C and report it.
18.3

Look up Fik Kinase %Inhibition of CNS(=O)(=O)c1ccc2c(c1)C(=Cc1ccccn1)C(=O)N2 and report it.
-15.3

Look up Fik Kinase %Inhibition of O=C1Nc2ccc(S(=O)(=O)N3CCOCC3)cc2C1=Cc1ccc(F)cc1C(F)(F)F and report it.
11.6

Look up Fik Kinase %Inhibition of O=C1Nc2c(Br)cc(Br)cc2C1=Cc1ccc(Br)s1 and report it.
6.3
